# credit: the supplement of paper PMC10567573

Recorded measurements of protein stability index, one per entry
B1: PBXIP1 (parent)
chain: LQQLRARLQGLEADCVRGPDGVCL

- Variants of: B1
- ASSAY TEXT: protein stability index of a GFP-peptide fusion (GPS, HEK-293T) (PSI 1-6); higher = more stable;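 further: lentivirally expressed fusions sorted by FACS into six bins by GFP to DsRed ratio, PSI derived from sequencing read proportions per bin multiplied by bin number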
- TEST SETTINGS: c terminus: a fixed tail appended
Number only, please.

Answered examples (3):
MUTATION	EXPERIMENTAL READOUT	VALUE REPORTED
L11P	protein stability index	2.07
C15Y	protein stability index	2.13
C23P	protein stability index	2.52

Lookup: I'd like to know its protein stability index. The variant in question is `V22F`
Found: 1.34

Lookup: Which value of protein stability index has been reported for `A13L` in the records?
Found: 1.45

Lookup: Give its protein stability index value. Item: `V22M`
Found: 2.13

Lookup: Using the record for `C23I` , report its protein stability index.
Found: 2.78

Lookup: protein stability index lookup needed for `L11N` , thanks.
Found: 3.09

Lookup: Field request: protein stability index | item: `C23L`
Found: 2.48

Lookup: I have this variant here, `V22C` , and I need its recorded protein stability index.
Found: 1.84

Lookup: # input variant: `R5T` ; wanted: its protein stability index
Found: 3.04

Lookup: Please report the recorded protein stability index for `L8T` .
Found: 3.43

Lookup: Return reported protein stability index; argument: `C23M`
Found: 2.23

Lookup: Which protein stability index is reported for this variant? `C15G`
Found: 1.96

Lookup: What does the data say about its protein stability index? Entry: `Q2T`
Found: 2.61

Lookup: Data request, read-out protein stability index, for `D20G`
Found: 2.45

Lookup: Dear colleague, I am looking for the recorded protein stability index of the following variant: `D14E`
Found: 2.24
